Assay: yeast display, Sf9 membrane polyspecificity reagent, FACS + sequencing; frameworks hold sequencing errors
measurement.name: polyreactivity (PSR sort gate)

As a guide, the following entries are already answered.
seq_string=QVQLVESGGGLVQAGGSLRLSCAASGSTFPYYTMGGYRQAPGKERELVAAISWRGGSTYYADTVKGRFSISRDNAKNTVYLQMNSLKPEDTAVYYCAARYGVFGYDYWGQGTQVTVSS observed_measurement="high polyreactivity"
seq_string=QVQLVESGGCLVQAGGSLRLSCAASGFTFWRNVMGWYRQAPGKERELVAVISRGGSTNYADSVKGRFTISRDNAMNTVYLQMNSLKPEDTAVYYCAKYARGPSKVDYWGQGTQVTVSS observed_measurement="high polyreactivity"
seq_string=QVQLVESGGGLVQAGGSLRLSCAASGSIFPYYALGWYRQAPGKERELVAAISWSGTSTYYADSVKGRFTISRDNAKNTVYLQMNSLKPEDTAVYYCNAGYYHFYASGYDYWGQGTQVTVSS observed_measurement="low polyreactivity"
seq_string=QVQLVESGAGLVHAGGSLRLSCAASGNTFIDYAMGWYRQAPGKERELVASITSGGGSTYYADSVKGRFTISRDNEKNTDYLQMNSLKPEDTAVFFFAAERYNSEAIFRSYDYWGQGSQVTVSS observed_measurement="low polyreactivity"

Shifting focus to the sequence that follows.
Challenge: Identify measured polyreactivity (PSR sort gate) corresponding to `QVQLVESGGGLVQAGGSLRLSCAASGSTFFGNAMGWYRQAPGKERELVAVITKGGGSTYYADSVKGRFTISRDNAKNTVYLQMNSLKPEDTAVYYCAKTYTSGYHRRYDYWGQGTQVTVSS`
Response given: low polyreactivity
